# experimental-system: PARP (Homo sapiens)
# Sequence (P09874 whole entry): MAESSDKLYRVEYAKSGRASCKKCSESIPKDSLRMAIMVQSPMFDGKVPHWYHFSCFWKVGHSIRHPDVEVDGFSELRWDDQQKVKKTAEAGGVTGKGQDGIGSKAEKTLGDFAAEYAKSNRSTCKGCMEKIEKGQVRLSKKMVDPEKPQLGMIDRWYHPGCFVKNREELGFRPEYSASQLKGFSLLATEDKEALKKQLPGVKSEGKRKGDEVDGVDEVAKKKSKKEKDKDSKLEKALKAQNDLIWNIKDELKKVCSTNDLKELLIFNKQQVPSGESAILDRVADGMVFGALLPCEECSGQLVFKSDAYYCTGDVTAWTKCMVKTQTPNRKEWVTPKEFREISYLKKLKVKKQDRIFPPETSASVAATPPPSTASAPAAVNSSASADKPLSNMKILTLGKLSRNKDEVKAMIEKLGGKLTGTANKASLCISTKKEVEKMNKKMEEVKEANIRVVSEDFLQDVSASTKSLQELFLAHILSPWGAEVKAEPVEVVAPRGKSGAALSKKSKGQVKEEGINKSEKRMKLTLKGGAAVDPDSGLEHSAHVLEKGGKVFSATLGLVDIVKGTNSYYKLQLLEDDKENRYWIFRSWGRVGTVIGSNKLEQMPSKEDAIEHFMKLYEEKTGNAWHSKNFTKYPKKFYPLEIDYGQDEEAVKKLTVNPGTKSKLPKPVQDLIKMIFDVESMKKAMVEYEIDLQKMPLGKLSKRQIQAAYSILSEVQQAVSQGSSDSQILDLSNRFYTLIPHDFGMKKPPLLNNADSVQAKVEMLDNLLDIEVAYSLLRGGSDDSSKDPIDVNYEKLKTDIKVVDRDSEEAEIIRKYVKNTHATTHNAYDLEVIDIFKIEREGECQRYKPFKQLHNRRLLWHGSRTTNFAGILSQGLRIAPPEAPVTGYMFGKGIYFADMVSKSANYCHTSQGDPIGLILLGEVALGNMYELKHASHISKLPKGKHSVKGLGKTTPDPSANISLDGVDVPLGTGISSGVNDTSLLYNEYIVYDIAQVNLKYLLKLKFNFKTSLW
pIC50: −log10 of the molar value.
Quick reference for pIC50 among some molecules

Sample answers from the record:
CC1Oc2ccc(CN3CCN(c4ccc(C(=O)O)cn4)CC3)cc2NC1=O (stereo not shown) [Compound 233] :: ≤ 6.90
CC(C)NC(=O)c1ccc(N2CCN(Cc3ccc4c(c3)NC(=O)C(C)O4)CC2)cc1 (stereo not shown) [Compound 225] :: ≥ 7.50

Entry CC1Oc2ccc(CN3CCN(c4ccc(Cl)cn4)CC3)cc2NC1=O (stereo not shown) [Compound 61] ; assay system PARP (Homo sapiens); pIC50 recorded at 7.00 to 7.40

The observed pIC50 for CNC(=O)c1ccc(N2CCN(Cc3cc4c(c(-c5ccccc5)c3)OC(C)C(=O)N4)CC2)cc1 (stereo not shown) [Compound 350] when tested with PARP (Homo sapiens) stands at < 6.70

These data points were gathered from patent US8669249B2.
